system: Shigella sonnei; experiment: Expected efficacy of antibiotic agents; settings: expected efficacy against Shigella sonnei; Gram: neg
Assay Endpoint: Efficacy

molecule=O=C(O)c1cn(C2CC2)c2cc(N3CCNCC3)c(F)cc2c1=O target_entity="Shigella sonnei" assay_endpoint=Efficacy measured_value=yes
molecule=NC[C@H]1O[C@H](O[C@H]2[C@H](O)[C@@H](O[C@H]3O[C@H](CO)[C@@H](O)[C@H](N)[C@H]3O)[C@H](N)C[C@@H]2N)[C@H](N)C[C@@H]1O target_entity="Shigella sonnei" assay_endpoint=Efficacy measured_value=yes
molecule=CO/N=C(\C(=O)N[C@@H]1C(=O)N2C(C(=O)O)=C(CSc3nc(=O)c(=O)[nH]n3C)CS[C@H]12)c1csc(N)n1 target_entity="Shigella sonnei" assay_endpoint=Efficacy measured_value=yes
molecule=C/C(=C\C(=O)OCCCCCCCCC(=O)O)C[C@@H]1OC[C@H](C[C@@H]2O[C@H]2[C@@H](C)[C@H](C)O)[C@@H](O)[C@H]1O target_entity="Shigella sonnei" assay_endpoint=Efficacy measured_value=no

Inquiry: I would be grateful if you could share the reported Efficacy for "CN[C@H](CC(C)C)C(=O)N[C@H]1C(=O)N[C@@H](CC(N)=O)C(=O)N[C@H]2C(=O)N[C@H]3C(=O)N[C@H](C(=O)N[C@H](C(=O)O)c4cc(O)cc(O)c4-c4cc3ccc4O)[C@H](O)c3ccc(c(Cl)c3)Oc3cc2cc(c3O[C@@H]2O[C@H](CO)[C@@H](O)[C@H](O)[C@H]2O[C@H]2C[C@](C)(N)[C@H](O)[C@H](C)O2)Oc2ccc(cc2Cl)[C@H]1O" .
Reply text: no

Reference for the values: patent US20220265694A1
